Reference source for all entries: PubChem BioAssay (NCI)

Tested on: SK-OV-3 ovarian
ASSAY: NCI tumour cell line growth inhibition, 48 h
Reported values of TGI for individual entries

{"COMPOUND": "CO[C@@H]1C=C[C@@]23c4cc5c(cc4C(O)N(CC2O)C3C1)OCO5 (some centres not stated)", "ASSAYED_TARGET": "SK-OV-3 ovarian", "TGI": "> 100 µM"}
{"COMPOUND": "Cc1ccsc1C(=O)C(CC(=O)c1cccs1)c1ccsc1 (configuration not stated)", "ASSAYED_TARGET": "SK-OV-3 ovarian", "TGI": "> 100 µM"}
{"COMPOUND": "COc1cc2nc(-c3ccccc3F)[nH]c(=O)c2cc1OC", "ASSAYED_TARGET": "SK-OV-3 ovarian", "TGI": "> 100 µM"}
{"COMPOUND": "CCOC(=O)N1N=NC2C3OC(C[C@@]3(C#N)OC(C)=O)[C@H]21 (some centres not stated)", "ASSAYED_TARGET": "SK-OV-3 ovarian", "TGI": "> 100 µM"}
{"COMPOUND": "Nc1ccc2cc3[nH]c4cc(N)ccc4c3nc2c1", "ASSAYED_TARGET": "SK-OV-3 ovarian", "TGI": "2.03 µM"}
{"COMPOUND": "O=C(OCC1OC(OC(=O)c2cc(O)c(O)c(OC(=O)c3cc(O)c(O)c(O)c3)c2)C(OC(=O)c2cc(O)c(O)c(OC(=O)c3cc(O)c(O)c(O)c3)c2)C(OC(=O)c2cc(O)c(O)c(OC(=O)c3cc(O)c(O)c(O)c3)c2)C1OC(=O)c1cc(O)c(O)c(OC(=O)c2cc(O)c(O)c(O)c2)c1)c1cc(O)c(O)c(OC(=O)c2cc(O)c(O)c(O)c2)c1 (configuration not stated)", "ASSAYED_TARGET": "SK-OV-3 ovarian", "TGI": "> 50 µM"}
{"COMPOUND": "COc1cc(C)c2c(=O)c3c(oc2c1)C(=O)c1c(O)c(OC)cc(O)c1C3=O", "ASSAYED_TARGET": "SK-OV-3 ovarian", "TGI": "3.98 µM"}
{"COMPOUND": "COC(=O)[C@@H]1C2OC(C)(C)OC2CN1C(=O)OCc1ccccc1 (some centres not stated)", "ASSAYED_TARGET": "SK-OV-3 ovarian", "TGI": "> 100 µM"}
{"COMPOUND": "CN1C(=O)c2c(c3c4ccccc4n(C4OC(CO)C(O)C(O)C4O)c3c3[nH]c4ccccc4c23)C1=O (configuration not stated)", "ASSAYED_TARGET": "SK-OV-3 ovarian", "TGI": "10.9 µM"}
{"COMPOUND": "OCCNc1ncnc2c1ncn2C1OC(CO)C(O)C1O (configuration not stated)", "ASSAYED_TARGET": "SK-OV-3 ovarian", "TGI": "> 100 µM"}
{"COMPOUND": "Cc1ccc2c(Nc3cccc(Cl)c3F)ncc(NC(=O)c3csc4c(N)ncnc34)c2c1", "ASSAYED_TARGET": "SK-OV-3 ovarian", "TGI": "> 100 µM"}
{"COMPOUND": "CCOC(=O)Cn1c(C)c(/C=N/NC(=O)c2cc3c(ccc4ccccc43)o2)c2ccccc21", "ASSAYED_TARGET": "SK-OV-3 ovarian", "TGI": "9.44 µM"}
{"COMPOUND": "CN1CCCC1=NC#N", "ASSAYED_TARGET": "SK-OV-3 ovarian", "TGI": "> 100 µM"}
{"COMPOUND": "O=c1oc2ccc(Cl)cc2c(=O)n1-c1cc(C(F)(F)F)cc(C(F)(F)F)c1", "ASSAYED_TARGET": "SK-OV-3 ovarian", "TGI": "2.38 µM"}
{"COMPOUND": "COc1cc(Cn2ccc3c2-c2oncc2CC3)cc(OC)c1", "ASSAYED_TARGET": "SK-OV-3 ovarian", "TGI": "> 100 µM"}
{"COMPOUND": "C/C1=C\\[C@H](C)C[C@H](C)OC(=O)C[C@H](c2ccc(O)cc2)NC(=O)[C@H](Cc2ccc(O)c(Br)c2)N(C)C(=O)[C@H](C)NC(=O)[C@@H](C)C1", "ASSAYED_TARGET": "SK-OV-3 ovarian", "TGI": "> 25 µM"}
{"COMPOUND": "O=C(CC(=O)Nc1ccccc1O)Nc1ccccc1O", "ASSAYED_TARGET": "SK-OV-3 ovarian", "TGI": "> 100 µM"}
{"COMPOUND": "CCN(CC)CCOC(=O)CCN1CC2CCC(CC2)C1", "ASSAYED_TARGET": "SK-OV-3 ovarian", "TGI": "> 100 µM"}
{"COMPOUND": "N#CSCc1c(Cl)cccc1Cl", "ASSAYED_TARGET": "SK-OV-3 ovarian", "TGI": "> 100 µM"}
{"COMPOUND": "O=C(Nc1ccccc1)NS(=O)(=O)c1ccc(N2N=C3c4ccccc4CC3C2c2ccccn2)cc1 (configuration not stated)", "ASSAYED_TARGET": "SK-OV-3 ovarian", "TGI": "> 100 µM"}
{"COMPOUND": "C/C=C/C(C#N)(Cc1ccccc1)OP1(=O)OC(c2ccccc2)C(C)N1C (configuration not stated)", "ASSAYED_TARGET": "SK-OV-3 ovarian", "TGI": "> 100 µM"}
{"COMPOUND": "CCOC(=O)CCC(NC(=O)c1ccc(Nc2nc3ccccc3n3cccc23)cc1)C(=O)OCC (configuration not stated)", "ASSAYED_TARGET": "SK-OV-3 ovarian", "TGI": "50.1 µM"}
{"COMPOUND": "C[C@]12CCC3c4ccc(O)cc4CCC3C1Cc1ccc(O)cc12 (some centres not stated)", "ASSAYED_TARGET": "SK-OV-3 ovarian", "TGI": "36.4 µM"}
{"COMPOUND": "CSCCCNC(=O)c1csc(-c2csc(CCN)n2)n1", "ASSAYED_TARGET": "SK-OV-3 ovarian", "TGI": "> 100 µM"}
{"COMPOUND": "COCOCC1CCCN1CN1CCC[C@H]1COCOC (some centres not stated)", "ASSAYED_TARGET": "SK-OV-3 ovarian", "TGI": "> 100 µM"}
{"COMPOUND": "O=C(/C=C/c1ccccc1O)c1cccnc1", "ASSAYED_TARGET": "SK-OV-3 ovarian", "TGI": "> 100 µM"}
{"COMPOUND": "O=C(O)Cc1cccc2c1OC(c1ccccc1)C(C(=O)c1ccccc1)C2=O (configuration not stated)", "ASSAYED_TARGET": "SK-OV-3 ovarian", "TGI": "> 100 µM"}
{"COMPOUND": "Cc1c2cccc-2ccc2c1[nH]c1ccc(Br)cc12", "ASSAYED_TARGET": "SK-OV-3 ovarian", "TGI": "28.7 µM"}
{"COMPOUND": "CCOC(=O)C(Cc1ccccc1)NC(=O)OC(C)(C)C (configuration not stated)", "ASSAYED_TARGET": "SK-OV-3 ovarian", "TGI": "> 100 µM"}
{"COMPOUND": "CN(C)CCCNc1ccnc2cc([N+](=O)[O-])ccc12", "ASSAYED_TARGET": "SK-OV-3 ovarian", "TGI": "62.3 µM"}
{"COMPOUND": "Cc1ccccc1-c1c(N)nc(N)nc1C(=O)Nc1nccs1", "ASSAYED_TARGET": "SK-OV-3 ovarian", "TGI": "> 100 µM"}
{"COMPOUND": "COc1ccc(C2CC(c3ccc4ccccc4c3O)=NN2C(C)=O)cc1OC (configuration not stated)", "ASSAYED_TARGET": "SK-OV-3 ovarian", "TGI": "> 100 µM"}
{"COMPOUND": "Cc1ccccc1NC(=O)C1C(=O)N(c2ccccc2C)C(=O)/C1=N\\N (configuration not stated)", "ASSAYED_TARGET": "SK-OV-3 ovarian", "TGI": "> 100 µM"}
{"COMPOUND": "COc1ccc(CC2c3cc(OC)c(OC)c(OC)c3CC[N+]2(C)C)cc1Oc1ccc(CC2c3cc4c(c(OC)c3CCN2C)OCO4)cc1 (configuration not stated)", "ASSAYED_TARGET": "SK-OV-3 ovarian", "TGI": "> 100 µM"}
{"COMPOUND": "CCO/C=N/C1=C(C#N)C(c2ccc(Cl)cc2)c2c(-c3ccccc3)nn(-c3ccccc3)c2O1 (configuration not stated)", "ASSAYED_TARGET": "SK-OV-3 ovarian", "TGI": "48.2 µM"}
{"COMPOUND": "C[C@H]1[C@H](C)CC[C@]2(C(=O)O)CC[C@]3(C)C(=CC[C@@H]4[C@@]5(C)CC[C@H](OC(=O)/C=C/c6ccc(O)cc6)C(C)(C)[C@@H]5CC[C@]43C)[C@H]12", "ASSAYED_TARGET": "SK-OV-3 ovarian", "TGI": "20.3 µM"}
{"COMPOUND": "C=CC(=O)N1CCC([C@@H]2CCNc3c(C(N)=O)c(-c4ccc(Oc5ccccc5)cc4)nn32)CC1", "ASSAYED_TARGET": "SK-OV-3 ovarian", "TGI": "14.2 µM"}
